Every entry's value here was drawn from patent US11667602B2.

target: human RXFP1 (Homo sapiens); test: RXFP1 Hu cAMP (Test A); format: cell-based; parameters: expressed in transfected cells; host or cells: Jump-In T-REx CHO-K1 cells (ThermoFisher), induced with 10 ng/ml doxycycline for 24 h; conditions: RXFP1 Hu cAMP
ENDPOINT_NAME: Test A Sinf (%)

SMILES_ENTRY	MEASURED_RESULT
COc1cc(C#N)c(O[C@H]2CC[C@@](C)(C(=O)O)CC2)cc1C(=O)N[C@@H]1[C@H]2CC[C@H](C2)[C@@H]1C(=O)NCCCF	76
COc1cc(F)c(O[C@H]2CC[C@@](C)(C(=O)O)CC2)cc1C(=O)N[C@@H]1[C@H]2CC[C@H](C2)[C@@H]1C(=O)N[C@H]1CCN(S(=O)(=O)C(F)(F)F)C1	90
COc1cc(F)c(-c2ccc(C(=O)O)c(O)c2)cc1C(=O)N[C@@H]1[C@H]2CC[C@H](C2)[C@@H]1C(=O)Nc1cccc(S(=O)(=O)C(F)(F)F)c1	104

----------
biological target: human RXFP1 (Homo sapiens, UniProt Q9HBX9); experiment: RXFP1 Hu cAMP (Test A); assay type: cell-based; parameters: expressed in transfected cells; host or cells: Jump-In T-REx CHO-K1 cells (ThermoFisher), induced with 10 ng/ml doxycycline for 24 h; conditions: RXFP1 Hu cAMP; read-out: Test A EC50
Sequence (Q9HBX9 whole entry): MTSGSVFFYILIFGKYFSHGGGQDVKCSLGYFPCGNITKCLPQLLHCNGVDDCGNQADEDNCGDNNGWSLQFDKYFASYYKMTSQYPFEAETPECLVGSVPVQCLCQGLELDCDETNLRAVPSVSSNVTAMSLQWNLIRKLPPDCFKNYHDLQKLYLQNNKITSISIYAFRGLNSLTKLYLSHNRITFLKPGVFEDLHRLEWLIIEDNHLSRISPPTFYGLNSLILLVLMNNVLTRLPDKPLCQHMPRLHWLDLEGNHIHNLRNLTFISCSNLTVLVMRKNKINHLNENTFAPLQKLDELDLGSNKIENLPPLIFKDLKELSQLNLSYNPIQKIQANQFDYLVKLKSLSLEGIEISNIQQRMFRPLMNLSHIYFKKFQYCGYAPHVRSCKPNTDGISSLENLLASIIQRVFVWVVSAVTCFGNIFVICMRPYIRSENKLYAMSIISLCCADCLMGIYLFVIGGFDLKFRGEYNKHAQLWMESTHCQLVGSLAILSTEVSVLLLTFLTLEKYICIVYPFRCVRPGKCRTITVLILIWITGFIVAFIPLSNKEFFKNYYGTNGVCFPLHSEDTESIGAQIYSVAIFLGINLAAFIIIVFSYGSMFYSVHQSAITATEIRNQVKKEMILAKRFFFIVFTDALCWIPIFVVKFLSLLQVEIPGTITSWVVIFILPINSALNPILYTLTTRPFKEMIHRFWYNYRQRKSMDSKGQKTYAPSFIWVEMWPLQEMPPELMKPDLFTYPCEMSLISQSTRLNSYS
pEC50: −log10 of the molar value.
ENDPOINT_NAME: pEC50

SMILES_ENTRY	ASSAY_TARGET	pEC50
COc1cc(F)c(O[C@H]2CC[C@@](C)(C(=O)O)CC2)cc1C(=O)N[C@@H]1[C@H]2CC[C@H](C2)[C@@H]1C(=O)NC(C(C)C)C(C)C	human RXFP1 (Homo sapiens, UniProt Q9HBX9)	6.09

(a) COc1cc(F)c(O[C@H]2CC[C@@](C)(C(=O)O)CC2)cc1C(=O)N[C@@H]1[C@H]2CC[C@H](C2)[C@@H]1C(=O)N[C@@H](C)C(C)(C)C#N
(b) COc1cc(F)c(O[C@H]2CC[C@@H](C(=O)O)CC2)cc1C(=O)N[C@@H]1CCC[C@@H]1C(=O)Nc1ccc(F)c(C(F)(F)F)c1
(c) COc1cc(F)c(-c2ccc(CCC(=O)O)nn2)cc1C(=O)N[C@@H]1[C@H]2CC[C@H](C2)[C@@H]1C(=O)Nc1cccc(S(=O)(=O)C(F)(F)F)c1
Request: Please order the records by their reported pEC50, lowest number first. Could you list the labels in the order requested?
Result: a, c, b

----------
assay: Human Liver Microsomal Stability (Test C); assay type: in vitro ADME; conditions: human, liver microsomes
ENDPOINT_NAME: microsomal CLint (µL/min/mg)

(P) COc1cc(F)c(O[C@H]2CC[C@@H](C(=O)O)CC2)cc1C(=O)N[C@@H]1[C@H]2CC[C@H](C2)[C@@H]1C(=O)Nc1cccc(OC(F)(F)F)c1 [Example 20]
(Q) COc1cc(F)c(-c2ccc(C3(C(=O)O)CC3)cc2)cc1C(=O)N[C@H]1[C@@H](C(=O)Nc2cccc(S(=O)(=O)C(F)(F)F)c2)[C@@H]2C=C[C@H]1C2 (racemic) [Example 288]
(R) COc1cc(F)c(O[C@H]2CC[C@@](C)(C(=O)O)CC2)cc1C(=O)N[C@@H]1CCC[C@@H]1C(=O)N[C@@H](C)C1(C)CC1 (racemic) [Example 63]
Request: Could you please sort these 3 entries by microsomal CLint from high to low? Could you list the labels in the order requested?
Result: P, R, Q
